Catalogue of TGI readings, one per entry.
system: HS 578T breast; assay: NCI tumour cell line growth inhibition, 48 h
REPORTED ENDPOINT: TGI

MOLECULE	REPORTED ENDPOINT	ASSAY VALUE
CC12C(=O)CC(CC1=O)C2(C)C	TGI	> 100 µM
COc1ccc2ccccc2c1/C=C/C(=O)c1ccccc1	TGI	38.7 µM
O=C(NC1=CC(=O)c2ccccc2C1=O)c1ccccc1	TGI	71.9 µM
Cn1cc(NC(=O)c2cc(NC(=O)CN=C(N)N)cn2C)cc1C(=O)NCCC(=N)N	TGI	> 100 µM
c1ccc2c(c1)ccn2CCc1c[nH]c2ccccc12	TGI	> 10 µM
COC[C@@H](C[C@H]1O[C@@](O)([C@H](O)[C@@H]2C[C@H](OC)[C@@H](O)CC/C=C(C)/C=C/[C@@H](O[C@@H]3O[C@@H](C)[C@H](OC)[C@@H](O)[C@@H]3O)[C@H](C)/C=C(C)/C=C(C)/C=C(\C)C(=O)O2)[C@H](C)[C@@H](O)[C@H]1C)O[C@H]1C[C@](C)(O)[C@@H](O[C@H]2C[C@@H](OC)[C@H](O)[C@@H](C)O2)C(C)O1 (stereo partly drawn)	TGI	> 100 µM
Cc1ccc2c(c1)C(C(=O)N[C@@H]1C(=O)N3[C@@H]1SC(C)(C)[C@@H]3C(=O)O)OCCC2 (stereo partly drawn)	TGI	> 100 µM
O=c1cc(-c2ccc(F)cc2)[nH]c2ncc(Cl)cc12	TGI	85 µM

---

tested on: MALME-3M melanoma; assay: NCI tumour cell line growth inhibition, 48 h

MOLECULE	CENSORING QUALIFIER	TGI, µM
COc1cc(Cn2c3c(c4cc(O)ccc42)Cc2ccccc2C3=O)cc(OC)c1	>	100
c1cc(CNC23CC4CC(CC(C4)C2)C3)cc(C[N+](Cc2cccc(CNC34CC5CC(CC(C5)C3)C4)c2)(Cc2cccc(CNC34CC5CC(CC(C5)C3)C4)c2)Cc2cccc(CNC34CC5CC(CC(C5)C3)C4)c2)c1 (stereo not given)	=	7.77
N#CC(NNC(=O)Cc1ccccc1)c1c(O)ccc2ccccc12 (stereo not given)	=	30.2
CCOC(=O)C1=C(C)N(NC(=O)Nc2ccccc2)C(=O)C1=P(c1ccccc1)(c1ccccc1)c1ccccc1	>	100
COC(CNC(=O)C(C)NC(=O)CCc1ccccc1)OC (stereo not given)	>	100

---

TGI values, listed per item
test system: NCI-H460 lung; assay: NCI tumour cell line growth inhibition, 48 h
Where a SMILES comes first, the peptide text is derived from it. [ ]: non-standard residue; d: D form. The star is where a group is joined. NMeF = CN[CH](Cc1ccccc1)C(=O)O; NMeV = CN[CH](C(=O)O)C(C)C; Boc = CC(C)(C)OC(=O)*

COMPOUND	SYSTEM NAME	TGI
N=C1C(c2nc3ccccc3s2)=C(O)CN1c1cc(C(F)(F)F)ccc1Cl	NCI-H460 lung	77.9 µM
CC(C)n1nc(-c2cc3cc(O)ccc3[nH]2)c2c(N)ncnc21	NCI-H460 lung	9.38 µM
CS/C(N)=N\NC(=O)CCC(=O)Nc1ccccc1C(F)(F)F	NCI-H460 lung	> 100 µM
O=C1C2C3C=C4c5ccccc5N(c5ccccc5)C4(C2C(=O)N1Cc1ccccc1)C1C(=O)N(Cc2ccccc2)C(=O)C31 (stereo unspecified)	NCI-H460 lung	> 100 µM
C=CCCN1CCc2c([nH]c3ccccc23)C1C(=O)O (stereo unspecified)	NCI-H460 lung	> 100 µM
CC(C)C(NC(=O)OC(C)(C)C)C(=O)N(C)C(Cc1ccccc1)C(=O)N(C)C(C(=O)O)C(C)C (stereo not drawn) (Boc-Val-[NMeF]-[NMeV]-OH; configuration not given here)	NCI-H460 lung	> 100 µM
O=C1OC(c2ccccc2)=N/C1=C\c1cccc2ccccc12	NCI-H460 lung	> 100 µM
CC1(C)SCc2nc3ncccc3n21	NCI-H460 lung	> 100 µM
CCOC(=O)c1c(C)n(Cc2ccc(Cl)cc2Cl)c2c1c(CN(C)C)c(O)c1[nH]cnc12	NCI-H460 lung	28.7 µM
O=C(NI1OC(=O)c2ccccc21)c1ccc(Cl)cc1	NCI-H460 lung	> 100 µM
CCCN1CCC(=O)N(CCC(F)(F)C(F)(F)C(F)(F)C(F)(F)C(F)(F)C(F)(F)F)C1=S	NCI-H460 lung	> 100 µM
O=C(c1ccc(N=Cc2ccccc2O)cc1)c1ccc(N=Cc2ccccc2O)cc1	NCI-H460 lung	> 100 µM
CCCCCCCC/C=C/CCCCCCCC(=O)OC[C@H]1O[C@@H](n2ccc(N)nc2=O)C(F)(F)[C@@H]1O	NCI-H460 lung	> 33.4 µM
CN1CCC(O)(C(C)(C)C)CC1	NCI-H460 lung	> 100 µM
COc1ccc(C(=C(Cl)c2ccccc2)c2ccc(OC)cc2)cc1	NCI-H460 lung	> 100 µM
COc1ccc(/C=C/c2ccnc3ccccc23)c(OC)c1	NCI-H460 lung	> 10 µM
N#CCN1C(=O)c2cccc3cc([N+](=O)[O-])cc(c23)C1=O	NCI-H460 lung	> 100 µM
O=C(O)C1OC(n2cc(F)c(=O)[nH]c2=O)CC1O (stereo unspecified)	NCI-H460 lung	> 100 µM
NC(Cc1ccccc1)C(=O)N[C@H]1c2ccsc2/C(=N/O)[C@H]1O (stereo partly specified)	NCI-H460 lung	> 100 µM
CCN(CC)C(=O)Cn1c(C)cc2ccccc21	NCI-H460 lung	> 100 µM
O=C1OC(C(O)CO)C(=O)C1=O (stereo unspecified)	NCI-H460 lung	> 10000 µM

Where these numbers come from: PubChem BioAssay (NCI)
